Experiment: Cmax in C57BL/6J mouse at 1 mg/kg through subcutaneous administration after 24 hrs by LC-MS/MS analysis
Format: ADME, organism-based
Parameters: dose 1 mg/kg, route subcutaneous
Conditions: in vivo, sc
Where a SMILES comes first, the peptide text is derived from it. [ ]: non-standard residue; d: D form. The star is where a group is joined. ξ: configuration not given here. ξCha = NC(CC1CCCCC1)C(=O)O; Aib = CC(C)(N)C(=O)O; Bz = O=C(c1ccccc1)*
QUANTITY_KIND: Cmax (nM)

MOLECULE: CC(C)C[C@H](NC(=O)[C@H](CC(N)=O)NC(=O)C(CC1CCCCC1)NC(=O)C(CC1CCCCC1)NC(=O)[C@H](Cc1cnc[nH]1)NC(=O)[C@H](CCCNC(=N)N)NC(=O)c1ccccc1)C(=O)NC(C)(C)C(=O)N[C@H](C(=O)N[C@@H](CCCNC(=N)N)C(=O)N[C@@H](CCC(N)=O)C(=O)N[C@@H](CCCNC(=N)N)C(=O)NC(CC1CCCCC1)C(N)=O)[C@@H](C)O (some centres not stated) (Bz-RH[ξCha][ξCha]NL[Aib]TRQR[ξCha]-NH2)
RECORDED_RESULT: 75.6
//
MOLECULE: CC(=O)N[C@@H](CO)C(=O)N1C[C@@H](O)C[C@@H]1C(=O)N[C@@H](CCCNC(=N)N)C(=O)N[C@@H](Cc1cnc[nH]1)C(=O)N[C@@H](CC1CCCCC1)C(=O)N[C@@H](CC1CCCCC1)C(=O)N[C@@H](CC(N)=O)C(=O)N[C@@H](CC(C)C)C(=O)NC(C)(C)C(=O)N[C@H](C(=O)N[C@@H](CCCNC(=N)N)C(=O)N[C@@H](CCC(N)=O)C(=O)N[C@@H](CCCNC(=N)N)C(=O)N[C@@H](CC1CCCCC1)C(N)=O)[C@@H](C)O
RECORDED_RESULT: 98.1
